src = paper PMC10674617

ASSAYED_SYSTEM: DENV2 RdRp (Dengue virus type 2)
READOUT_TYPE: pIC50
Scale: negative log10 of molar concentration, which is what pIC50 denotes.

Request: pIC50 lookup needed for COc1cc(C)c(S(=O)(=O)NC(=O)C(C)Oc2ccc3c4c(c(=O)oc3c2)CCCC4)cc1-c1ccc(C#CCO)s1 (stereo not drawn) , thanks.
Result: 4.94

Request: Follow-up entry: Nc1ncnc2c1ncn2[C@@H]1O[C@H](COP(=O)(O)OP(=O)(O)OP(=O)(O)O)C[C@H]1O [3′-dATP, reference compound]
Result: 4.52

Request: Follow-up entry: COc1cc(C)c(S(=O)(=O)NC(=O)c2ccc(C)c(Nc3nc(C)nc4c3CCC4)c2)cc1-c1ccc(C#CCO)s1
Result: 4.87

* * *

PROTOCOL_DETAILS: Cytotoxicity assay
Type: cell-based
RECORDED_CONDITIONS: dog
Give measured CC50 at 3 days for each item. Keep answers brief.
Hi! Could you send only the number? It should be in µM, unit omitted.

Request: CC50 at 3 days lookup needed for COc1cc(C)c(S(=O)(=O)NC(=O)C2CC(=O)N(c3ccc(Cl)c(Cl)c3)C2)cc1-c1ccc(C#CCO)s1 (stereo not drawn) , thanks.
Result: 69.9

Request: Follow-up entry: COc1cc(C)c(S(=O)(=O)NC(=O)C(C)Oc2ccc3c4c(c(=O)oc3c2)CCCC4)cc1-c1ccc(C#CCO)s1 (stereo not drawn)
Result: 24.7

Request: Follow-up entry: Nc1ncnc2c([C@@H]3N[C@H](CO)[C@@H](O)[C@H]3O)c[nH]c12 [BCX4430, reference compound]
Result: 100

Request: Follow-up entry: COc1cc(C)c(S(=O)(=O)NC(=O)c2ccc(C)c(Nc3nc(C)nc4c3CCC4)c2)cc1-c1ccc(C#CCO)s1
Result: 134

* * *

Tested on: MDCK cells
PROTOCOL_DETAILS: Cytotoxicity assay
Assay type: cell-based
RECORDED_CONDITIONS: cytotoxicity, MDCK cells
READOUT_TYPE: CC50 (µM)
Hi! Could you send only the number? It should be in µM, unit omitted.

Request: CC50 lookup needed for C#C[C@@]1(O)[C@H](O)[C@@H](CO)O[C@H]1n1ccc2c(N)ncnc21 [NITD008, reference compound] , thanks.
Result: 20
